System: CAMA1
Experiment: CellTiter-Glo Viability Assay, breast cancer
Assay type: cell-based
Settings: Homo sapiens, CAMA-1, 96 h; CAMA1, breast cancer, four days; read-out: EC50
Experimental: Fifty-one human cancer cell lines (breast cancer (8 cell lines), colorectal cancer (6 cell lines), haematopoietic & lymphoid tumors (13 cell lines), liver cancer (3 cell lines), lung cancer (4 cell lines), ovarian cancer (4 cell lines), pancreatic cancer (8 cell lines), and prostate cancer (5 cell lines)) were tested to determine the effects of representative compounds of Formulas (I)-(XII) on cellular proliferation, as evaluated using the CellTiter-Glo® Viability Assay. […]
The class of a record is decided solely by its measured EC50; consult LOW (below 400 nM), MID (400 nM to below 1000 nM), HIGH (1000 nM or more)

Answered examples (5):
# Smiles representation, Class label
measured = [
    ("Cc1ncc(C(=O)Nc2cc3nc(-c4cnc(C)n4C)ccc3cn2)s1", "LOW"),
    ("Cc1n[nH]c2cc(F)c(-c3cncc(CN4CCNCC4)c3)cc12", "HIGH"),
    ("CN1CCC(Oc2ccc(NC(=O)c3n[nH]c4cc(F)c(-c5cnn(C)c5)cc34)cc2)CC1", "HIGH"),
    ("CN1CC=C(c2cc(C(=O)Nc3cc4cc(-c5cncc(NC(C)(C)C)n5)cnc4cn3)ccn2)CC1", "HIGH"),
    ("CN(C)Cc1cncc(-c2cnc3[nH]nc(-c4nc5c(-c6cc(F)cc(N7CCOCC7)c6)cncc5[nH]4)c3c2)c1", "HIGH"),
]

Query: // return the class label for `CN1CCN(c2cc(Nc3ncc4c(-c5ccc6ncccc6c5)c[nH]c4n3)ccn2)CC1`
Response: HIGH

Query: Another compound: `Cc1n[nH]c2ccc(-c3cncc(N[C@H]4CC[C@H](O)CC4)n3)cc12`
Response: MID

Query: And the next one, `O=C1COc2cccc(c2)-c2cncc3[nH]c(nc23)-c2n[nH]c3ccc(cc23)-c2cncc(c2)N1` ?
Response: HIGH

Query: Input `CN1CCN(c2cc(C(=O)Nc3cc4cc(-c5nnc(N(C)C)s5)ccc4cn3)ccn2)CC1`
Response: HIGH

Query: Further, for `CN(C)C1CN(c2cc(C(=O)Nc3cc4cc(-c5cnn(C)c5)ccc4cn3)ccn2)C1` ?
Response: MID

Query: Here is the next compound: `Cc1ncc(-c2ccc3cnc(NC(=O)c4cnn(C5CCN(C)CC5)c4)cc3c2)o1`
Response: LOW

Query: Further, for `O=C(Nc1ccc(OCCN2CCCC2)cc1)c1n[nH]cc1/C=C/c1cccnc1` ?
Response: HIGH

Query: Please do the same for `CN1CCC(Oc2ccc(C(=O)Nc3cc4cc(-c5cnn(C)c5)ccc4cn3)cc2)CC1` as well.
Response: MID

Query: Similarly, `COc1ccc(NC(=O)c2n[nH]c3ccc(-c4cncc(CN5CCCCC5)c4)cc23)cn1` ?
Response: LOW

Query: Consider next the compound `CN1CCN(c2cc(C(=O)Nc3cc4cc(-c5cnn(C)c5)c(F)cc4cn3)ccn2)CC1` in the same way.
Response: HIGH

Query: Do the same for `CN(C)C1CCN(c2cc(C(=O)Nc3ncc4ccc(-c5cn(C)nn5)cc4n3)ccn2)CC1` please
Response: HIGH

Query: # iterate: `CN(C)CCOc1cc(C(=O)Nc2cc3cc(-c4cnn(C)c4)ccc3cn2)ccn1`
Response: LOW

Source: patent US20220062240A1
